Molecular target: T1, His-tagged CEACAM1 (human, UniProt P13688 35-428)
T1 construct: 45 kDa SPR analyte; also called CEACAM1-HIS; CEACAM1 analyte
T1 sequence: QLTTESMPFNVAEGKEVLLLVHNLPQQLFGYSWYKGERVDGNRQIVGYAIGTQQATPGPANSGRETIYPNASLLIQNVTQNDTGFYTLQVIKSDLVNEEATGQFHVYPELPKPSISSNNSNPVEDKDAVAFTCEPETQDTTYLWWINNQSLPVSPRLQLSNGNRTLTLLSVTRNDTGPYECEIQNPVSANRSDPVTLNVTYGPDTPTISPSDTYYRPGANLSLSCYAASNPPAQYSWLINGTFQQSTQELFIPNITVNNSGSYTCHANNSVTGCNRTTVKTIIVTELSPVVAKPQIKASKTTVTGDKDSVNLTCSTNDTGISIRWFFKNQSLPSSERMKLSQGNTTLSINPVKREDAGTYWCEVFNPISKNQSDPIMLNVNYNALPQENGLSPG
Assay: SPR single-cycle, supernatant IgG captured
OBSERVATION_TYPE: pKd
Please keep in mind that pKd is minus log10 of the molar concentration; only the number is needed.

What value of pKd has been reported for the following binder? CP08D01/Vκ8 S29A (antibody, IgG4, V domains shown, IgG4 (S241P), kappa) VH: EVQLLESGGGLVQPGGSLRLSCAASGFTFNAHGMSWVRQAPGKGLEWVATISSGGTYTYYPDSVKGRFTISRDNSKNTLYLQMNSLKAEDTAMYYCARHDFDYDAAWFAYWGQGTLVTVSS VL: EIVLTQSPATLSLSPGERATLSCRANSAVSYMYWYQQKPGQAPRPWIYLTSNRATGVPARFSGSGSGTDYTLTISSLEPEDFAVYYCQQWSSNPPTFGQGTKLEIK
6.52

What value of pKd has been reported for the following binder? VH1/CP08D02 (antibody, IgG4, V domains shown, IgG4 (S241P), kappa; also called Parent VH/CP08D02) VH: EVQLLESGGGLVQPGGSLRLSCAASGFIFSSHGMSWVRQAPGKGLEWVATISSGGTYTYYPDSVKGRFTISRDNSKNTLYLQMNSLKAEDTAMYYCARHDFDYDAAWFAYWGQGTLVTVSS VL: EIVLTQSPATLSLSPGERATLSCRANSAVSYMYWYQQKPGQAPRPWIYLTSNRATGVPARFSGSGSGTDYTLTISSLEPEDFAVYYCQQWTSFPPTFGQGTKLEIK
7.00

Data origin, for the record: patent US20250074980A1
